- testMethodNotes: soluble on expression in E. coli; label from the status in PepcDB or PDB records
readoutLabel: soluble on expression in E. coli

[
  {
    "monomerSequence": "MKFGIVARRDKEEALKLAYRVYDFLKVHGYEVVVDKETYEHFPHFKEGDVIPLDEFDVDFIVAIGGDGTILRIEHMTKKDIPILSINMGTLGFLTEVEPSDTFFALNRLIEGEYYIDERIKVRTYIDGENRVPDALNEVAILTGIPGKIIHMKYYVDGGLADEVRADGLVVSTPTGSTGYAMSAGGPFIDPRLDVILIAPLLPLPKTSVPMVIPGSSRIDIRMLTDREIILAIDGQYYEHLPPNVEITVVKSPRKTKFIRFTREIYPKYTIRIKERHMAGDPLEHHHHHH",
    "soluble on expression in E. coli": "not soluble"
  },
  {
    "monomerSequence": "MGSDKIHHHHHHMIDARVKFRHLQTFVEVARQKSVVKAAELLHVTQPAVTKTIRELEEVLGVAVFEREGRGIKITRYGEVFLRHAGAALTALRQGLDSVSQERSGEGPPIRVGALPTVSTRIMPRAIALFLKEKTGARIKIVTGENAVLLEQLRIGDLDLVVGRLAAPDKMTGFSFEHLYSEQVVFAVRAGHPLISGRQSLFAHLSDYPVLMPTRASIIRPFVEHFLIANGIAGLPNQIETVSDSFGRAFVRSSDAIWIISAGVVATDIADGVLAALPVDTSETRGPVGLTMRTDAIPSLPLSILMQTLREVAGTAMAAEAKRTA",
    "soluble on expression in E. coli": "not soluble"
  },
  {
    "monomerSequence": "KIGYGKANPTTRLWVGGLGPNTSLAALAREFDRFGSIRTIDHVKGDSFAYIQYESLDAAQAACAKMRGFPLGGPDRRLRVDFAK",
    "soluble on expression in E. coli": "soluble"
  },
  {
    "monomerSequence": "MGSDKIHHHHHHMSDSPLIAFPRGCITGTFIRRVKRFSVEMETAGAGAPERVWIHSNNSGSMLGLLRAGAPVLASPAANPARKLKWTQELAGLDGMWVGVNTQTPNRLLEAAFHAGRLPWAAGYTMFRREARCGASRLDARMDAPQDSGLPPLWVECKNVTMVEDDVAAFPDAATERGQKHLREMMEIVRQGQRAAMFYLVQRADGHCFGPADYVDPVYAGLFYEAAAAGVEMYPHRALVSEHGIDLGPLLPVVPPPGV",
    "soluble on expression in E. coli": "not soluble"
  },
  {
    "monomerSequence": "AHHHHHHGSTIKAPTLNVPGLGVDPLTQRIKEKEKKWKYKIAVLSGKGGVGKSTVAVNLTAALAKMGYFVGILDADIHGPNVAKMFGIGNTDIYAEKFEDGHFEMIPPTVDFMGQVTPIKVMSMGMMVPEDQPIIWRGSLVTKAIKQLLGDVMWGELDFMIIDFPPGTGDEILTVVQSIQLDAAIVVTTPQEVALLDTGKAVNMMKKMEVPYIAVIENMSYLICPHCGNKIDIFGEGGGEKLAEKEGVDFLGKVPIDLKAREASDLGIPIVLYGDTPAAKAFMEIAEKLVNKLKEIKGDGREK",
    "soluble on expression in E. coli": "not soluble"
  },
  {
    "monomerSequence": "MAETHSLGTKILIKIIRLYQIMISPFIGARCRFVPTCSCYGIEALKTHGLLKGGWLTLKRVLKCHPLNAGGFDPVPPKTNNNDEKK",
    "soluble on expression in E. coli": "not soluble"
  },
  {
    "monomerSequence": "MSLSNSLLPPNASGLERDIEQVIVQSTDLPIRIKDLWNPYSCHLSLLPWLAWALSVDEWDDRWPEHIKRQVVQDSFDVHRFKGTPYAVQKALDSLNIKTHLREWWEPDGSQEPGTMTVVALINENLTDDDNGLITEAMLEQVTRVIHTAKRGVIHFDVELGISLDETLGFSGAIGPSIAEIDFSSDFLPIVPEKGSADMAFSAALYGIGSADFLADMSGVVPDEGHHHHHH",
    "soluble on expression in E. coli": "not soluble"
  },
  {
    "monomerSequence": "MTTLSHVEALCALEQPYRADAECDRLFDAAMRELVDYHCEHSPGYRRWLEQNGFTPERLAGLSDWSQLPPIFANYFKRRLLLSTSGEDALELTSSGTTGQKSRMRYDERSIGAAQRMVDRIFDHYGWNTPQQPCNYLLLSYEPAGAITLGTAYTDQFLCKYAPVKRAVYALRHNGKGNEFDPFGAIRALQEFAAEGLPVRIFGFPAFLWFALERMRDMGLPPLALHPESLVFLGGGWKTHADQAIPKAELYRRLGEQLGLPDARCRDGYGSVEHPVPYVECTNHRFHVPSWARAWARDTATLARLPYGEAGFLHLVSPYITSSPAHSMLLSDLAVLQLAERCGCGLATDWFELLGRAGTSKSRSCAMAASELIKESLEHHHHHH",
    "soluble on expression in E. coli": "soluble"
  },
  {
    "monomerSequence": "MGSDKIHHHHHHMTLSITSNFDAGAIDVVSCERADAIRLRVRGDNRSEFAQWFYFRLTGARGERCVMTFENANDCAYPAGWRDYRAVASYDRVNWFRVPTSYDGQMLTIDHTPEFDSIHYAYFEPYSEERHSEFLGAVQQMPQASVVELGRTVEGRPMSLVVLGTPDEAGAAKKKVWIIARQHPGESMAEWFIEGLVKRLVGWGDWSGDPVARKLYDHATFYIVPNMNPDGSVHGNLRTNAAGANLNREWMEPDAERSPEVLVVRDAIHAIGCDLFFDIHGDEDLPYVFAAGSEMLPGFTEQQRVEQSAFIDSFKRASPDFQDEHGYPPGKYREDAFKLASKYIGHRFGCLSLTLEMPFKDNANLPDEHIGWNGARSASLGAAMLGAILEHVRAFA",
    "soluble on expression in E. coli": "not soluble"
  },
  {
    "monomerSequence": "MYKVSHGLSMVHEDEMGVNAPMDHQRVISKLNVGLGKLFYYDKAISLEPLPETMLDEGRTSRYDGPPTPDLILYDKARDHIPVIIEVCHTRGLKGDLQKVVSLIEDFPYDILEGFVYNYRTEHWFRYRKGDNGIATETSFSEILQLDLNQFL",
    "soluble on expression in E. coli": "not soluble"
  }
]

List soluble on expression in E. coli for every entry below, keeping the order given.
1. MDALAIINKYYPEDNELKHILLAHSRSVADKALWIAGKHPELNLDKQFLEEAAMLHDIGIFMTDAEGICCFGSYPYICHGYLGADLMRKEGFPRHALVCERHTGAGMSLQSIIDQQLPVPHRNMVPVSLEEQVICFADKFFSKTHLDREKSVEKALKSISRYGEDGIIRFNHWCECFL
2. MAHHHHHHMQKTILQILREQDDASSSCVLALLKGNASFQCLSKSEGEDILKRDNEDAEKLSDGIRIAIRKGIVSGKPDVSPVNKLNVVGLSAQEVTDKIVAALPSKNGNVIILQGLSGTGKGTTVSKLKDALPKCVTWSNGNIFRSYTYLCNEVLAAQGKEITEESLTDELLSSVEKRVTFVKCEDGMFHTMLDGTRRVADVQNTLLKTPLISSKVPTVAQQTQGEVIRFGAGAVKQLSADGYNVILEGRSQTLDYISSPLRFELIIPDVEVLGQRRAAQRVMAKALEMLDDSASDEEVSKVLVKAVETLQ

(A)
["soluble", "soluble"]

###

- testMethodNotes: soluble on expression in E. coli; label from the status in PepcDB or PDB records
readoutLabel: soluble on expression in E. coli

Here are 8 sequences together with their reported answers.
[
  {
    "monomerSequence": "SPSAQELKEQGNRLFVGRKYPEAAACYGRAITRNPLVAVYYTNRALCYLKMQQPEQALADCRRALELDGQSVKAHFFLGQCQLEMESYDEAIANLQRAYSLAKEQRLNFGDDIPSALRIAKKKRWNSIEERRIHQESELHSYLTRLIAAERERELEECQRNHEGHEDDGHIRAQQACIEAKHDKYMADMDELFSQVDEKRKKRDIPDYLCGKISFELMREPCITPSGITYDRKDIEEHLQRVGHFNPVTRSPLTQEQLIPNLAMKEVIDAFISENGWVEDY",
    "soluble on expression in E. coli": "soluble"
  },
  {
    "monomerSequence": "MDDTLFQLKFTAKQLEKLAKKAEKDSKAEQAKVKKALQQKNVECARVYAENAIRKKNEGVNWLRMASRVDAVASKVQTAVTMKGVTKNMAQVTKALDKALSAMDLQKVSAVMDRFEQQVQNLDVHTSVMEDSVSSATTLTTPQEQVDSLIVQIAEENGLEVLDQLSQLPEGASAVGESSVRSQEDQLSRRLAALRN",
    "soluble on expression in E. coli": "not soluble"
  },
  {
    "monomerSequence": "MVGQREPAPVEEVKPAPEQPAEPQQPVPTVPSVPTIPQQPGPIEHEDQTAPPAPHIRHYDWNGAMQPMVSKMLGADGVTAGSVLLVDSVNNRTNGSLNAAEATETLRNALANNGKFTLVSAQQLSMAKQQLGLSPQDSLGTRSKAIGIARNVGAHYVLYSSASGNVNAPTLQMQLMLVQTGEIIWSGKGAVSQQLEHHHHHH",
    "soluble on expression in E. coli": "soluble"
  },
  {
    "monomerSequence": "MAHHHHHHMGTLEAQTQGPGSMKQPTAVIFDWYNTLIDTSINIDRTTFYQVLDQMGYKNIDLDSIPNSTIPKYLITLLGKRWKEATILYENSLEKSQKSDNFMLNDGAIELLDTLKENNITMAIVSNKNGERLRSEIHHKNLTHYFDSIIGSGDTGTIKPSPEPVLAALTNINIEPSKEVFFIGDSISDIQSAIEAGCLPIKYGSTNIIKDILSFKNFYDIRNFICQLINI",
    "soluble on expression in E. coli": "soluble"
  },
  {
    "monomerSequence": "MHRKISCGINDIKSEFFEAERMNNSVTVEVTRGNLVESRHQGLAVVVDGDGGVLFSAGDIERGIFPRSACKAMQALPLVESGATDAYGFGNRELALACSSHSGEDAHAELAAAMLAKAGRDVDTLECGAHWSSDQKTIIHQARTLEKPTALHNNCSGKHSGFICACCHTGTDPKGYVGYDHPLQRQIRATMESLTGAALGHDNCGVDGCSIPTYAVPLKGLAHGFAKMATGRGLEAERAKASRRLIEACMAEPFYVAGTGRACTKLMQIAPGKIFAKTGAEGVFIAALPNQGIAMAVKCEDGTTRAAEAMVTALLARYFDDGSAEQQALKGMANRQMRNWNGIHVGDISVIGLAAALEHHHHHH",
    "soluble on expression in E. coli": "soluble"
  },
  {
    "monomerSequence": "MEWAMNEHHQPFEEIRHYGTEGQEFWSARELAPLLDYRDWRNFQKVLARATQACEASNQAASDHFVETTKMVVLGSGAQRELEDVHLSRYACYLVVQNGDPAKPVIAAGQTYFAIQTRRQELADDEAFKQLREDEKRLFLRNELKEHNKQLVEAAQQAAVATATDFAIFQNHGYQGLYGGLDQKAIHQLKGLKKSQKILDHMGSTELAANLFRATQTEEKLKRDGVNSKQQANTTHFDVGSKVRQTIQELGGTMPEELPTPQVSIKQLENSVKITEKK",
    "soluble on expression in E. coli": "not soluble"
  },
  {
    "monomerSequence": "MDDSTLTELEAAAFRRLVAHLRERTDVQNIDLMNLAGFCRNCLSNWLKDAADAQGVAMSRDESREAVYGMPYETWKAKYQSTATPDQVEAFKKSHPHSH",
    "soluble on expression in E. coli": "not soluble"
  },
  {
    "monomerSequence": "MSLNTVIADFTERAGTGRVLKAEPEAIQLAPEQTALIVVDMQNAYTSIGGYLDLAGFDVSKTKPVVENIQKAVTAAHAAGIQVIYFKNGWDNQYVEAGGAGSPNFHKSNALKTMRKQPELQGKLLAKGGWDFELIDELQPKSQDIVIEKPRYSGFFNTALDSMLRARGIRNLVFVGIATNVCVESTLRDGFFLEYFGVALDDACYQAGPVEMHRASMYNIKTFFGWVSDTEGHHHHHH",
    "soluble on expression in E. coli": "not soluble"
  }
]

# batch size: 5; output soluble on expression in E. coli per entry
1. MKSAYIFFNPKSGKDEQALAKEVKSYLIEHDFQDDYVRIITPSSVEEAVALAKKASEDHIDLVIPLGGDGTINKICGGVYAGGAYPTIGLVPAGTVNNFSKALNIPQERNLALENLLNGHVKSVDICKVNDDY
2. VSYVSVLPATLATAATEVARIGSALSLASAVAAAQTSAVQAAAADEVSAAIAALFSAHGRDFQALSARAAAFHHEFVQALAAGAGSYAVAEIAAASPLQSLIDVFNAPIQAATGRPLIGNGANGQPGTGAPGGPAGG
3. MTYDLSRLTQDLPHETSEPSPKSASTLSLPPGESDQNGNTSSHEGVTPPRRRCTISRSSSIDSISGETLISEYFSSDELDKLSTALSEVTF
4. MFFNKSLQQENQRLKQELYSLQQIQQSLDEEMLRLTLDAKGNVTSANQKFLQQLSLSDKDILAKHISDLVPSNVRNTDHFYRMKQSVQAKAFWNGAFQITKGDGEEAWLRVVIQPVRNASDQVESFFVFASELTRTITTSREYEDMLNALSRSMAVIEFTLDGTVLKANDNFLSTMGYKHEQIVGKHHRIFCLPEEANSSAYHDFWKRLASGQFVTDRFKRVDQHGSVVWLEASYNPIHNDRGELYKVVKFATNITQQVLQ
5. MAPINGIRDDDAASIRLRDSFRDEVSKRMGELLLKGQTMLDEYCPTCSGILMEDRALVRRCVTCELFREKSSVIVGEVSLQDEDLNEAVNNKIPTPAAPVNKPAKKAVLQKSAPAKKKEAVPAAAEPSSSDTIESATTAVLQKLEWATDRLNSTEEVARVMDFLSVIQKSAETLKALRI

(A)
1: not soluble; 2: soluble; 3: not soluble; 4: not soluble; 5: not soluble
